All values here come from paper PMC10976746.

TESTED_ON: murine MIF (Mus musculus)
PROCEDURE_TEXT: dopachrome tautomerase inhibition assay, recombinant mouse MIF
VALUE_KIND: IC50 (µM)
Report the value in µM with no unit label.

I'd like to know its IC50. The compound in question is CS(=O)(=O)Nc1cc2occ(NC=O)c(=O)c2cc1Oc1ccccc1 [T-614, iguratimod]
5.2
